meta.source: the supplement of paper PMC10981050

Readings of cell viability for the listed compounds
system: MARIMO; assay: cell viability relative to vehicle control; higher = less cytotoxic; details: 10 µM; SRSF2 genotype: SRSF2 P95H/wt;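 further: after 48 h exposure read by CellTiter-Glo luminescence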
Where a name gives a salt, the structure may show the parent alone.
quantity-kind: cell viability

{"columns": ["compound", "quantity-kind", "observed-value"],
 "data": [
  ["COC(=O)C1=C(C)NC(C)=C(C(=O)OCCN(C)Cc2ccccc2)C1c1cccc([N+](=O)[O-])c1 (centres undefined) [Nicardipine HCl]", "cell viability", "81.8%"],
  ["CCCCOc1ccc(C(=O)Nc2ccc(F)cc2F)cc1", "cell viability", "75.4%"],
  ["COC1=CC(=O)c2ccccc2C1=O", "cell viability", "46.3%"],
  ["CCCCCCOC(=O)NC(=N)c1ccc(NCc2nc3cc(C(=O)N(CCC(=O)OCC)c4ccccn4)ccc3n2C)cc1", "cell viability", "55.2%"]
]}
